# procedure details: TNS fluorescence apparent pKa protocol for saRNA-LNP
# Assay type: physicochemical
# applied conditions: saRNA-LNPs, TNS 6 μM, to 9.5, 25° C., EC50 of sigmoidal curve
measurement name: pKa
I only need the number, thanks.

Which pKa is listed for CCCCCCCCCC(CCCCCCCCC(=O)OCC(CCCC)CCCCCC)OC(=O)CCCN(C)C (stereo not shown) [Compound 11] ?
6.25
